SYSTEM UNDER TEST: hCA II (Homo sapiens, UniProt P00918)
In plain terms, low IC50, meaning strictly below 1000 nM, gives class 1, and everything else gives class 0.

In the record for Cc1cccc2cc(/C=N/c3c(N)n(C)c(=S)[nH]c3=O)c(=O)[nH]c12 [Compound 10g] , is IC50 less than 1000 nM?
class 0

Does the reported IC50 of Cn1c(N)c(/N=C/c2cc3ccccc3[nH]c2=O)c(=O)[nH]c1=O [Compound 10d] stay below 1000 nM?
class 1

Please let me know if Nc1[nH]c(=O)[nH]c(=O)c1/N=C/c1cc2ccccc2[nH]c1=O [Compound 10a] shows IC50 below 1000 nM.
class 1

Criterion: IC50 strictly below 1000 nM. Is it met by Nc1c(/N=C/c2cc3ccccc3[nH]c2=O)c(=O)[nH]c(=O)n1Cc1ccccc1 [Compound 10b] ?
class 0

Quick check: IC50 of COc1ccc2[nH]c(=O)c(/C=N/c3c(N)n(C)c(=S)[nH]c3=O)cc2c1 [Compound 10l] under 1000 nM?
class 0

Strictly below 1000 nM: is that where IC50 of CCn1c(N)c(/N=C/c2cc3cc(OC)ccc3[nH]c2=O)c(=O)[nH]c1=O [Compound 10j] sits?
class 0

# strict comparison: is reported IC50 < 1000 nM? input = Cn1c(N)c(/N=C/c2cc3ccccc3[nH]c2=O)c(=O)[nH]c1=S [Compound 10e]
class 0

Please check: IC50 for COc1ccc2[nH]c(=O)c(/C=N/c3c(N)[nH]c(=O)[nH]c3=O)cc2c1 [Compound 10h] , strictly under 1000 nM or not?
class 0

---

Exercise: state measured Selectivity index II/IX for each of the compounds provided.
SYSTEM UNDER TEST: UniProt:Q16790
ASSAY EXPLANATION: Carbonic anhydrase inhibition, colorimetric method (BioVision CA Inhibitor Screening Kit)
CONDITION: hCA IX over hCA II
Reply with just the number.

// lookup Selectivity index II/IX for CCn1c(N)c(/N=C/c2cc3ccccc3[nH]c2=O)c(=O)[nH]c1=O [Compound 10c]
1.65

Recorded Selectivity index II/IX for CCn1c(N)c(/N=C/c2cc3cccc(C)c3[nH]c2=O)c(=O)[nH]c1=O [Compound 10f] , please?
2.99

Selectivity index II/IX for Cc1cccc2cc(/C=N/c3c(N)n(C)c(=S)[nH]c3=O)c(=O)[nH]c12 [Compound 10g] ?
3.10

Record request: Selectivity index II/IX value, item COc1ccc2[nH]c(=O)c(/C=N/c3c(N)[nH]c(=O)[nH]c3=O)cc2c1 [Compound 10h]
7.52

---

I'd be grateful if you could share measured Ki for these entries.
SYSTEM UNDER TEST: hCA IX (Homo sapiens)
ASSAY EXPLANATION: Carbonic anhydrase inhibition, colorimetric method (BioVision CA Inhibitor Screening Kit)
Field: numeric (µM). Do not append units.

Ki for Cn1c(N)c(/N=C/c2cc3ccccc3[nH]c2=O)c(=O)[nH]c1=O [Compound 10d] ?
0.12

// returns reported Ki for input CCn1c(N)c(/N=C/c2cc3ccccc3[nH]c2=O)c(=O)[nH]c1=O [Compound 10c]
0.22

Requested field: Ki. Item: COc1ccc2[nH]c(=O)c(/C=N/c3c(N)n(Cc4ccccc4)c(=O)[nH]c3=O)cc2c1 [Compound 10i]
0.51

For CCn1c(N)c(/N=C/c2cc3cc(OC)ccc3[nH]c2=O)c(=O)[nH]c1=O [Compound 10j] , what is its reported Ki?
0.48

Values from paper PMC9146896
